- System Under Test: MAGI2_4, Q86UL8
- Sequence (Q86UL8 772-865): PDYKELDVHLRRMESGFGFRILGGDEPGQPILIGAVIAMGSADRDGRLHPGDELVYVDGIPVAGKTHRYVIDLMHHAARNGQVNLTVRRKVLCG
- Experiment: holdup assay
- Parameters: key: below the threshold = too weak to quantify, mostly under pKd 3.1 to 4
- Test Context: plain residues with an end cap or a label only (N-terminal biotin on a linker: ttds)

- Binder: "IYVPEAQTRL [DLGAP4, Q9Y2H0]"
  pKd: "below the threshold"
- Binder: "PKTPPTDTSV [KIR3DL3, Q8N743]"
  pKd: "below the threshold"
- Binder: "IDNDTESTAL [ARHGAP17, Q68EM7]"
  pKd: "below the threshold"

From: paper PMC9482650
